Data origin: PubChem BioAssay

target: Torsin-1A (Homo sapiens); experiment: torsin A mutant lysate binding on microarrays – cell lysate, small-molecule microarray, COS7 lysate, 635/667 nm fluorescence, primary screen (AID 1150); details: COS7 hTOR1A mutant lysate, 635 nm fluorescence, higher = more signal;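 also: score pools 667 nm emission and signal to noise measuring lysate protein binding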
composite z-score of -0.05 or higher: 1.0. Under -0.05: 0.0.

Completed entries (count: 3):
molecule | category label
C=CCOC(=O)[C@@H]1[C@H]2C(=O)O[C@H](c3ccccc3)[C@H](c3ccccc3)N2[C@H](c2ccc(OCCOC(=O)[C@H]3C[C@H]4C(=O)N[C@@H](CCCC[N+](C)(C)C)C(=O)N4[C@H]3c3cccc(OCCO)c3)cc2)[C@@]12C(=O)Nc1ccc(I)cc12 | 1.0
COCCCNC(=O)[C@]1(Cc2ccccc2N=[N+]=[N-])N=C(c2ccc(OCCCO)cc2)O[C@@H]1c1ccccc1CN=[N+]=[N-] | 1.0
O=C(NCC(O)CO)[C@@]1(Cc2ccccc2)COC(c2ccc(OCCCO)cc2)=N1 (stereo not given in full) | 1.0

In: Would you say O=C1C2C=CC(C(O)C3CC=CCC3)N(n3cnnc3)C2C(=O)N1Cc1ccccc1 (stereo not given) shows composite z-score at minimum -0.05?
Out: 0.0

In: Item `O=C1c2ccccc2[C@@]2(Cc3ccccc3N(Cc3ccccc3)C2=O)[C@H](c2ccc(CO)cc2)N1Cc1ccccc1C(F)(F)F` with composite z-score of -0.05 or above?
Out: 0.0

In: Hello, I need to know if CCCCCN1CC=CC23O[C@@H]4C=CCCOC(=O)C4[C@H]2C(=O)N(CCCO)[C@@H]3C1=O (stereo not given in full) has measured composite z-score not below -0.05. Thanks!
Out: 0.0

In: # check: composite z-score of `C[n+]1ccc2ccc(O)cc2c1` is greater than or equal to -0.05
Out: 1.0

In: Would you say `CCCC[C@@H]1C[C@H]1[C@@H](NC(=O)c1ccco1)c1ccccc1` shows composite z-score at minimum -0.05?
Out: 0.0

In: Identify whether the reported composite z-score of the following molecule is -0.05 or greater: `C[N+](C)(C)CCCC[C@@H]1NC(=O)[C@@H]2C[C@H](C(=O)NCCCCCCNC(=O)CS)[C@H](c3cccc(OCCO)c3)N2C1=O`
Out: 1.0

In: Quick check, composite z-score >= -0.05? CC(=O)n1cc(C(O)C2C=CC3C(=O)N(c4ccccc4)C(=O)C3N2Nc2ccc(C#N)cc2)c2ccccc21 (stereo not given)
Out: 1.0

In: Reported composite z-score reaches at least -0.05 for CC1(C)C(=O)C(c2ccccc2)=C2CN3C(=O)N(CCc4ccccc4)C(=O)C3(Cc3ccccc3)C=C21 (stereo not given) ?
Out: 0.0

In: Determine whether measured composite z-score meets or exceeds -0.05 for CCN(CC)c1ccc(N2CC=CC34O[C@@H]5C=CCCOC(=O)C5[C@H]3C(=O)N(CCCO)[C@@H]4C2=O)cc1 (stereo not given in full)
Out: 0.0

In: Answer whether composite z-score of `O=C1C[C@@](C(=O)O)(c2ccc([N+](=O)[O-])cc2)[C@@H](c2ccc(CO)cc2I)N1C1CCCCC1` is greater than or equal to -0.05.
Out: 1.0

In: Evaluate `COc1ccc(C#Cc2ccc3c(c2)[C@]2(C(=O)N3)[C@H](C(=O)N3CCc4cc(OC)c(OC)cc4C3)[C@H]3C(=O)O[C@H](c4ccccc4)[C@H](c4ccccc4)N3[C@@H]2c2ccc(OCCO)cc2)cc1` : composite z-score at minimum -0.05?
Out: 1.0

---

Assign composite z-score to each entry below.
biological target: Follistatin-related protein 3 (Homo sapiens); test: compounds binding follistatin-related protein 3 – biochemical, small-molecule microarray, 635 nm fluorescence, primary screen (AID 1105); details: FSTL3 binding, higher = more signal;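 also: score merges emission near 667 nm and signal to noise per printed spot across three slides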
One number for each entry.

Use these answered entries as a reference point.
compound | target entity | composite z-score
CCCCCN1CC=CC23O[C@@H]4C=CCCOC(=O)C4[C@H]2C(=O)N(CCCO)[C@@H]3C1=O (stereo not given in full) | Follistatin-related protein 3 (Homo sapiens) | -0.344
COc1cc2c(cc1O)C(c1ccc(CN3CCCC3)cc1)N(Cc1sc3ccccc3c1Cl)CC2 (stereo not given) | Follistatin-related protein 3 (Homo sapiens) | 0.988
COCCOC(=O)N1C(=O)[C@@]2(c3ccccc31)[C@H](c1ccc(O)cc1)N1[C@H](c3ccccc3)[C@H](c3ccccc3)OC(=O)[C@H]1[C@@H]2C(N)=O | Follistatin-related protein 3 (Homo sapiens) | -0.821

Batch lookup, composite z-score per entry.
1. O=C1OCCC/C=C\[C@H]2OC34C=CCN(Cn5nnc6ccccc65)C(=O)[C@H]3N(CCCO)C(=O)[C@@H]4C12 (stereo not given in full)
2. COc1ccc([Si](C)(C)[C@@H]2[C@@H](CC(=O)N3Cc4ccccc4C[C@H]3CO)O[C@]3(C(=O)N(Cc4cccc(N5C(=O)COc6ccccc65)c4)c4ccccc43)[C@H]2C)cc1
3. C=C[C@H](OC)[C@@H](OC(=O)Nc1ccc(SC)cc1)c1ccc(OCCO)cc1
4. COCCn1c(C(=O)N2CCCC2)cc2c1C[C@H]1CN(C(=O)c3ccccc3)[C@@](Cc3ccc(OC)cc3)(C(=O)OC)[C@@H]21
5. O=c1cccc(-c2ccc3ccccc3c2)o1
6. CC1(C)C(=O)C(c2ccccc2)=C2CN3C(=O)N(CCc4ccccc4)C(=O)C3(Cc3ccccc3)C=C21 (stereo not given)
7. Cc1ccc(F)cc1S(=O)(=O)N[C@@H]1CCN(Cc2ccc(C(F)(F)F)cc2)C1

Out:
[-0.921, 1.13, -0.275, 0.682, -0.0172, 0.949, -0.769]

# map each compound to its composite z-score
1. CC(c1ccccc1)C(O)C1C=CC2C(=O)N(Cc3ccccc3)C(=O)C2N1n1cnnc1 (stereo not given)
2. COCCOC(=O)N1C(=O)[C@@]2(c3cc(C#CCC(C(=O)OC)C(=O)OC)ccc31)[C@H](c1ccc(OCCO)cc1)N1[C@H](c3ccccc3)[C@H](c3ccccc3)OC(=O)[C@H]1[C@@H]2C(=O)NC[C@H](O)c1ccccc1
3. Cc1ccc(N2C(=O)c3ccccc3[C@@H](C(=O)NCC(C)C)[C@@H]2c2ccc(CO)cc2)nc1
4. CCCCC(=C=CC[C@H](O)c1ccccc1OCCO)C[C@H](O)c1cc(Cl)cc(Cl)c1O
5. COc1ccc([Si](C)(C)[C@@H]2[C@@H](CCO)O[C@]3(C(=O)N(Cc4cccc(N(C=O)c5ccccc5)c4)c4ccccc43)[C@H]2C)cc1

Out:
0.369
1.29
-1.19
0.179
-0.0339

// batch mode: one composite z-score value per listed entry
1. C=C(COC)/C(=C/C[C@H](OC(C)=O)c1ccccc1OCCO)c1cnc2ccccc2c1
2. O=C(NCc1ccccc1)[C@@H]1c2ccccc2C(=O)N(Cc2cc(F)cc(C(F)(F)F)c2)[C@H]1c1ccc(CO)cc1
3. O=C1C2C=CC(C(O)CCc3ccccc3)N(Nc3ccccc3)C2C(=O)N1c1ccccc1 (stereo not given)
4. C=CCC(OC(C)=O)[C@@H]1[C@@H](N(Cc2cc3ccccc3o2)C(=O)c2ccc(C)cc2)c2cc(OCCCO)ccc2N1C(=O)c1ccc(-c2ccccc2)cc1 (stereo not given in full)

Out:
[1.41, 0.588, 0.425, 0.363]

---

I'd appreciate it if you could supply z-score values for the items below.
experiment: S6 kinase pathway phospho-S6 level changes – cell-based, A549, cytoblot, luminescence, serum-stimulated, primary screen (AID 1158); settings: 5 h, higher = more signal;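 also: serum-stimulated A549 lung adenocarcinoma cells; signal is phosphorylated S6 detected by cytoblot immunostaining with HRP secondary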
Numbers only.

compound | z-score
CCN(CC)c1ccc(N2CC=CC34O[C@@H]5C=CCCOC(=O)C5[C@H]3C(=O)N(CCCO)[C@@H]4C2=O)cc1 (some centres not stated) | 1.09
O=[N+]([O-])c1ccc(C[n+]2ccc(CCCO)cc2)o1 | 0.437
C=CCC(OC(C)=O)[C@@H]1[C@@H](N(Cc2ccc(-c3cccc(C(F)(F)F)c3)o2)C(=O)c2ccc(C)cc2)c2cc(OCCCO)ccc2N1C(=O)c1ccc2ccccc2n1 (some centres not stated) | -0.218
Cc1ccc(S[C@]2(C(=O)NCc3ccccc3)CC(=O)N(Cc3cc(C(F)(F)F)cc(C(F)(F)F)c3)[C@@H]2c2ccc(CO)cc2)cc1 | -0.466
O=C(NCC(O)CO)[C@@]1(Cc2ccccc2)N=C(c2ccc(OCCCO)cc2)O[C@H]1c1ccccc1 (some centres not stated) | -0.142
COCCOC(=O)N1C(=O)[C@@]2(c3cc(C#Cc4ccc(OC)cc4)ccc31)[C@H](C(N)=O)[C@H]1C(=O)O[C@H](c3ccccc3)[C@H](c3ccccc3)N1[C@@H]2c1ccc(O)cc1 | 2.93

In the following, a different compound is considered.
In: Entry `Cc1cccc(/C=C/C=O)c1` : reported z-score = ?
Out: -0.57

---

Record form. Attribute: composite z-score. Fill in for each entry.
molecular target: Pro-neuregulin-1, membrane-bound isoform (Homo sapiens); test: small molecules binding neuregulin-1 protein – biochemical, small-molecule microarray, fluorescence 635/667, psychiatric disease protein project, primary screen (AID 1075); details: NRG1 binding, 635 nm fluorescence, higher = more signal;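 also: score combines 667 nm spot fluorescence with signal to noise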
Answers are plain numbers.

Use the examples below as a reference point.
molecule | obs value
CCCC[C@@H]1C[C@H]1[C@@H](NC(=O)c1ccccc1)c1ccc(-c2ccccc2)cc1 | 0.23
O=C1C[C@@](C(=O)O)(c2ccc([N+](=O)[O-])cc2)[C@@H](c2ccc(CO)cc2I)N1CC12CC3CC(CC(C3)C1)C2 | 1.48
CC(C)NC(=O)[C@@]1(c2ccc([N+](=O)[O-])cc2)CC(=O)N(C(C)C)[C@@H]1c1ccc(CO)cc1 | -0.524

List composite z-score for every entry below, keeping the order given.
1. O=C1O[C@@H](c2ccccc2)[C@@H](c2ccccc2)N2[C@@H](c3ccc(O)cc3)[C@]3(C(=O)Nc4ccccc43)[C@@H](C(=O)N3CCCCCCC3)[C@H]12
2. C=C[C@H](C)[C@H](OC(=O)Nc1ccc(OC)cc1)c1ccc(O)c2ccccc12
3. [N-]=[N+]=NCc1ccccc1[C@H]1OC(c2ccc(OCCCO)cc2)=N[C@@]1(Cc1ccccc1)C(=O)NCC(O)CO (stereo partly drawn)
4. COCCn1c(C(=O)N(C)C)cc2c1C[C@H]1CN(C(=O)c3ccccc3)[C@@](Cc3ccc(F)cc3)(C(=O)OC)[C@@H]21

Out:
1: 2.22; 2: -0.322; 3: 1.65; 4: 1.11

In: Quick one: composite z-score for `C#C[C@H]1Oc2ccccc2S(=O)(=O)N2CCC[C@@H]12` ?
Out: -0.671
